Target: Paired box protein Pax-8 (Homo sapiens, UniProt Q06710)
Sequence (Q06710 whole entry): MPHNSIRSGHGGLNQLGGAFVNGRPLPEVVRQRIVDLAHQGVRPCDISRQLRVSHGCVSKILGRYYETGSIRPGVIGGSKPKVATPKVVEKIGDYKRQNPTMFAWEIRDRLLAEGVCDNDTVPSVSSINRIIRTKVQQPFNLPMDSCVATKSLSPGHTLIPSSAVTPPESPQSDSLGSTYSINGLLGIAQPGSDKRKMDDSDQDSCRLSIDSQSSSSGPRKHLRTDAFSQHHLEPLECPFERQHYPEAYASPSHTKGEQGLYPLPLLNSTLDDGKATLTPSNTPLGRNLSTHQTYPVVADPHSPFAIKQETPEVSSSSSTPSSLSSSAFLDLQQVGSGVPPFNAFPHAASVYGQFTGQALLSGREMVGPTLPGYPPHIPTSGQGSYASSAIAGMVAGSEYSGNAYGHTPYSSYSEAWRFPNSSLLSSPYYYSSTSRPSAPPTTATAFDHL
Assay: inhibitors of PAX8-driven TPO luciferase reporter, dose response, RMG-I cells, cherry-pick (AID 687027);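 further: luciferase reporter driven by Pax8 target thyroperoxidase promoter measured by SteadyGlo luminescence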
Format: functional, cell-based
Activity calls are given as the source filed them. How the calls were made is not given here.
readout.label: AC50

Recorded AC50, per entry:
COc1ccc(C)cc1NS(=O)(=O)c1ccc(-c2cnc(C3CC3)o2)cc1 :: 734 nM (active)
COc1cc(/C=C/C(=O)N2CCC=CC2=O)cc(OC)c1OC [PIPLARTINE] :: 2690 nM (active)
COc1cc(-c2cnc3c(NC=O)cc(-c4ccc(C)cc4)cn23)cc(OC)c1OC :: < 260 nM (active)

// returns reported AC50 for input `CC(C)NC(=O)N(C)C[C@H]1OCCCC[C@@H](C)Oc2ccc(NC(=O)Nc3ccc(C(F)(F)F)cc3)cc2C(=O)N([C@@H](C)CO)C[C@H]1C` 8110 nM (active)
